Each recorded value in this set is attributed to patent US20260365663A1.

Listed next: entries and their corresponding pIC50.
target: EBP (Homo sapiens); construct: HEK293T cells were utilized as the source of EBP enzyme; endogenous in cells; host or cells: HEK293T; assay: EBP Functional Assay (EBP immunoaffinity LC-MS assay); type: biochemical
Sequence (Q15125 whole entry): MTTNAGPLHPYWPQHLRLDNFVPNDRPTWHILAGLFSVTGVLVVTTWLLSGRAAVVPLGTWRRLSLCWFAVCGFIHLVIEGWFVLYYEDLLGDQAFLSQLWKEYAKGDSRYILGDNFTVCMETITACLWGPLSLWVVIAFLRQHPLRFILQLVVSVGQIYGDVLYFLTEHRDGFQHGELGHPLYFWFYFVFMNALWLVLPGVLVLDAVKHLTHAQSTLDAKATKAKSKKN
pIC50: −log10 of the molar value.
RECORDED ENDPOINT: pIC50

> print(dat)
                                   molecule  recorded.endpoint  result.value
1  Cc1cc(C)c(S(=O)(=O)N2CC3(CCC(N4CCOCC4)C3)C2)cn1 (centres unmarked)              pIC50  6.30 to 7.00
2  Cc1nc(C(F)(F)F)ccc1S(=O)(=O)N1CC2(CC(N3CC4(COC4)C3)C2)C1              pIC50  5.52 to 6.30
3  N#Cc1cc(F)cc(S(=O)(=O)N2CC3(CC[C@@H](N4CCOCC4)C3)C2)c1              pIC50  5.52 to 6.30
4  Cn1nc(C(F)(F)F)cc1S(=O)(=O)N1CC2(CC(N3CC4(COC4)C3)C2)C1              pIC50  5.52 to 6.30
5  Cc1nn(C)c(S(=O)(=O)N2CC3(CCC(N4CCOCC4)C3)C2)c1Cl (centres unmarked)              pIC50  6.30 to 7.00
6  Cc1nc(C(F)(F)F)ncc1S(=O)(=O)N1CC2(CC(N(C)C3CCOCC3)C2)C1              pIC50        > 7.00
7  COc1ncc(C)cc1S(=O)(=O)N1CC2(CC(N3CC4(COC4)C3)CO2)C1 (centres unmarked)              pIC50  5.52 to 6.30
8  N#Cc1cc(F)cc(S(=O)(=O)N2CC3(CC[C@H](N4CCOCC4)C3)C2)c1              pIC50  5.52 to 6.30
